Reported pIC50 by item:
Tested on: methylated H3K4 in F9 embryonic teratocarcinoma cells
Assay: Histone H3 methylation in F9 cells, Western blotting
Assay type: cell-based, mouse
Conditions: read-out: IC50 in F9 cells (histone H3K4 methylation), various concentrations
pIC50: −log10 of the molar value.

- sample.smiles: "COC(=O)c1cc(CN2CCN(C(=N)N)CC2)cc(C(=O)N2CCN(C(=O)c3ccc(C(=N)N)cc3)CC2)c1"
  tested.system: "methylated H3K4 in F9 embryonic teratocarcinoma cells"
  pIC50: "5.30 to 6.00"
- sample.smiles: "N=C(N)c1ccc(C(=O)N2CCN(C(=O)c3cc(CN4CCN(C(=N)N)CC4)cc([N+](=O)[O-])c3)CC2)cc1"
  tested.system: "methylated H3K4 in F9 embryonic teratocarcinoma cells"
  pIC50: "5.00 to 5.30"
